Format: physicochemical
Settings: scan rate 10,000 mV/sec, glassy carbon, Ag/AgCl reference
Could you please report measured Reduction Potentials, 10,000 mV/sec for the items listed next?
Include the unit right after the number.

Looking for the measured Reduction Potentials, 10,000 mV/sec of CC(OP(=O)(NCCBr)NCCBr)c1ccc([N+](=O)[O-])cc1 (centres unmarked) [Compound 78] , can you help?
−746 mV

Please do the same for Cn1c(COP(=O)(NCCCl)NCCCl)cnc1[N+](=O)[O-] [Compound 36] as well.
−634 mV

Please do the same for O=[N+]([O-])c1ncc[nH]1 [2-NO2-Imidazole, reference compound] as well.
−693 mV

Please do the same for O=[N+]([O-])c1ccc(COP(=O)(NCCBr)NCCBr)s1 [Compound 34] as well.
−663 mV

Please do the same for Cn1c(COP(N)(=O)N(CCCl)CCCl)cnc1[N+](=O)[O-] (centres unmarked) [Compound 1] as well.
−638 mV

Please do the same for CC(OP(=O)(NCCBr)NCCBr)c1ccc([N+](=O)[O-])s1 (centres unmarked) [Compound 88] as well.
−629 mV

Please do the same for Cn1c(COP2(=O)N(CCBr)CCN2CCBr)cnc1[N+](=O)[O-] [Compound 108] as well.
−593 mV

Please do the same for O=[N+]([O-])c1ccc(COP(=O)(NCCBr)NCCBr)o1 [Compound 24] as well.
−636 mV

Please do the same for Cn1c(COP(=O)(NCCBr)NCCBr)cnc1[N+](=O)[O-] [Compound 25] as well.
−626 mV

Please do the same for CN(CCCl)P(=O)(OCc1cnc([N+](=O)[O-])n1C)N(C)CCCl [Compound 5] as well.
−634 mV

Please do the same for Cc1csc(C(C)OP(=O)(NCCBr)NCCBr)c1[N+](=O)[O-] (centres unmarked) [Compound 103] as well.
−756 mV

* * *

Assay: In vivo plasma or tumor pharmacokinetics of Compound 25 (Table 4)
Set-up: species or system CD-1 mice (nude mice where noted)
Details: CD-1, mouse, plasma, ip, 25 mg/kg, 25 mg/kg i.p., 10% PEG, CD-1 mice
Value Type: Tmax (min)
Dear colleague, please return just the value in min, with no unit written.

Looking for the measured Tmax of Cn1c(COP(=O)(NCCBr)NCCBr)cnc1[N+](=O)[O-] [Compound 25] , can you help?
45

* * *

Tested on: H460 cell line
Experiment: Anti-proliferation assay, hypoxia vs normoxia (Table 1A)
Conditions: Homo sapiens, NCI-H460, read-out: Normoxia P (proliferation IC50)
Value Type: log10(IC50) (log10 of the value in µM)
For clarity, the numbers are log10 values of IC50 expressed in µM.

Looking for the measured log10(IC50) of O=[N+]([O-])c1ccc(COP(=O)(NCCCl)NCCCl)s1 [Compound 26] , can you help?
1.54

Please do the same for COc1cc(COP(=O)(N(C)CCCl)N(C)CCCl)ccc1OCc1cnc([N+](=O)[O-])n1C [Compound 18] as well.
0.95

Please do the same for Cn1c(COP(=O)(NCCBr)NCCBr)cnc1[N+](=O)[O-] [Compound 25] as well.
1.70

Please do the same for O=[N+]([O-])c1ccc(COP(=O)(NCCNP(=O)(OCc2ccc([N+](=O)[O-])o2)N(CCCl)CCCl)N(CCCl)CCCl)o1 (centres unmarked) [Compound 21] as well.
0.89

Please do the same for CN(CCCl)P(=O)(OCc1ccc([N+](=O)[O-])o1)N(C)CCCl [Compound 8] as well.
-0.22

Please do the same for Cn1c(COc2ccc(COP(=O)(NCCCl)NCCCl)cc2F)cnc1[N+](=O)[O-] [Compound 27] as well.
2.00

Please do the same for Cn1c(COP(=O)(NCCCl)NCCCl)nc(Br)c1[N+](=O)[O-] [Compound 32] as well.
2.00

Please do the same for CCN(CCCl)P(=O)(OCc1cnc([N+](=O)[O-])n1C)N(CC)CCCl [Compound 15] as well.
0.00

Please do the same for Cn1c(COP2(=O)N(CCBr)CCCN2CCBr)cnc1[N+](=O)[O-] [Compound 35] as well.
1.70

Please do the same for CN(CCCl)P(=O)(OCc1c(F)c(F)c(OCc2ncc([N+](=O)[O-])n2C)c(F)c1F)N(C)CCCl [Compound 17] as well.
0.95

* * *

Assay: in vivo
Details: CD-1, mouse, iv, 50 mg/kg
Could you please report measured Tmax for the items listed next?
Dear colleague, please return just the value in min, with no unit written.

Looking for the measured Tmax of Cn1c(COP(=O)(NCCCl)NCCCl)cnc1[N+](=O)[O-] , can you help?
5

Please do the same for CN(CCCl)P(=O)(OCc1cnc([N+](=O)[O-])n1C)N(C)CCCl as well.
5

Please do the same for O=[N+]([O-])c1ccc(COP(=O)(NCCCl)NCCCl)o1 as well.
5

* * *

Could you please report measured IC50 for the items listed next?
System: H460 cell line
Experiment: Anti-proliferation assay, hypoxia vs normoxia (Table 1A)
Conditions: Homo sapiens, NCI-H460, read-out: Normoxia P (proliferation IC50)
Dear colleague, please return just the value in µM, with no unit written.

Looking for the measured IC50 of Cn1c(COP(N)(=O)N(CCCl)CCCl)cnc1[N+](=O)[O-] (stereo not shown) , can you help?
72

Please do the same for O=[N+]([O-])c1ccc(COP(=O)(N(CCCl)CCCl)N(CCCl)CCCl)o1 [Compound P22, reference compound] as well.
3.5

Please do the same for CN(CCCl)P(=O)(OCc1cnc([N+](=O)[O-])n1C)N(C)CCCl as well.
3.5

Please do the same for O=[N+]([O-])c1ccc(COP(=O)(NCCCCNP(=O)(OCc2ccc([N+](=O)[O-])o2)N(CCCl)CCCl)N(CCCl)CCCl)o1 (stereo not shown) as well.
8.5

Please do the same for O=[N+]([O-])c1ccc(COP(=O)(NCCCl)NCCCl)o1 as well.
5

Please do the same for Cn1c(COP(=O)(N(CCCl)C2CC2)N(CCCl)C2CC2)cnc1[N+](=O)[O-] as well.
25

Please do the same for Cn1c(COP2(=O)N(CCCl)CCCN2CCCl)cnc1[N+](=O)[O-] as well.
100

Please do the same for Cn1c(COc2ccc(COP(N)(=O)N(CCCl)CCCl)cc2F)cnc1[N+](=O)[O-] (stereo not shown) as well.
16

Please do the same for O=[N+]([O-])c1ccc(COP(=O)(NCCBr)NCCBr)s1 as well.
1.8

Please do the same for O=[N+]([O-])c1ccc(COP(=O)(NCCBr)NCCBr)o1 as well.
4

* * *

Test: Pharmacokinetics after intravenous or intraperitoneal administration in mice (Table 2B)
Details: CD-1; Balb/c for Compound 1, mouse, plasma, iv, 50 mg/kg
Could you please report measured Vd for the items listed next?
Dear colleague, please return just the value in L/kg, with no unit written.

Looking for the measured Vd of Cn1c(COP(N)(=O)N(CCCl)CCCl)cnc1[N+](=O)[O-] (centres unmarked) , can you help?
1.48

Please do the same for O=[N+]([O-])c1ccc(COP(=O)(NCCCl)NCCCl)o1 as well.
3.3

* * *

Test: In vivo plasma or tumor pharmacokinetics of Compound 25 (Table 4)
Parameters: species or system CD-1 mice (nude mice where noted)
Conditions: CD-1, mouse, plasma, iv, 50 mg/kg, 50 mg/kg i.v., 30% PEG/70% Saline, CD-1 mice
Value Type: Cmax (ng/mL)
Dear colleague, please return just the value in ng/mL, with no unit written.

Looking for the measured Cmax of Cn1c(COP(=O)(NCCBr)NCCBr)cnc1[N+](=O)[O-] , can you help?
27500

* * *

Assay: In vivo plasma or tumor pharmacokinetics of Compound 25 (Table 4)
Parameters: species or system CD-1 mice (nude mice where noted)
Details: CD-1, mouse, plasma, po, 100 mg/kg, 100 mg/kg p.o., Saline, CD-1 mice
Value Type: Cmax
Include the unit right after the number.

Looking for the measured Cmax of Cn1c(COP(=O)(NCCBr)NCCBr)cnc1[N+](=O)[O-] [Compound 25] , can you help?
15800 ng/mL

* * *

Test: In vivo plasma or tumor pharmacokinetics of Compound 25 (Table 4)
Design: species or system CD-1 mice (nude mice where noted)
Settings: CD-1, mouse, plasma, ip, 50 mg/kg, 50 mg/kg i.p., Saline, CD-1 mice; read-out: Half-life
Value Type: half-life (min)
Dear colleague, please return just the value in min, with no unit written.

Looking for the measured half-life of Cn1c(COP(=O)(NCCBr)NCCBr)cnc1[N+](=O)[O-] , can you help?
7.91

* * *

Tested on: H460 lung carcinoma spheroids
Test: Spheroid model, clonogenic survival
Details: Homo sapiens, NCI-H460, 2 h, read-out: IC90 H460 Spheroid 10% O2
Value Type: IC90 (µM)
Dear colleague, please return just the value in µM, with no unit written.

What IC90 appears in the records for this compound with H460 lung carcinoma spheroids? Cn1c(COP2(=O)N(CCBr)CCCN2CCBr)cnc1[N+](=O)[O-] [Compound 35]
22

Please do the same for COc1cccc2c1C(=O)c1c(O)c3c(c(O)c1C2=O)C[C@@](O)(C(C)=O)C[C@@H]3O[C@H]1C[C@H](N)[C@H](O)[C@H](C)O1 [Daunorubicin, reference compound] as well.
19

Please do the same for COC(=O)c1cc(C(C)OP(=O)(NCCBr)NCCBr)ccc1OCc1cnc([N+](=O)[O-])n1C (centres unmarked) [Compound 70] as well.
25.5

Please do the same for Cn1c(COP(=O)(NCCBr)NCCBr)cnc1[N+](=O)[O-] [Compound 25] as well.
15

Please do the same for O=[N+]([O-])c1ccc(COP(=O)(NCCBr)NCCBr)o1 [Compound 24] as well.
3
